Hello, the source for this data is patent US12252534, in case you need it.

// reported MFI for each item listed
Target: T1, human CD3 on human T cells (Jurkat) (human, UniProt P07766 23-207; P04234 22-171; P09693 23-182)
T1 construct: whole, on cells; also called huCD3+; cell surface CD3 on human (Jurkat) T cells
T1 sequence (P07766 23-207, chain 1 of 3): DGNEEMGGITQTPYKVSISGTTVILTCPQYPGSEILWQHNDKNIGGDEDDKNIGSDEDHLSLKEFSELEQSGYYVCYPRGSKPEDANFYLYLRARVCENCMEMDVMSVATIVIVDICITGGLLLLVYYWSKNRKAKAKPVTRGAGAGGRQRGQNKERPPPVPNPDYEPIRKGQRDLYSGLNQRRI
T1 sequence (P04234 22-171, chain 2 of 3): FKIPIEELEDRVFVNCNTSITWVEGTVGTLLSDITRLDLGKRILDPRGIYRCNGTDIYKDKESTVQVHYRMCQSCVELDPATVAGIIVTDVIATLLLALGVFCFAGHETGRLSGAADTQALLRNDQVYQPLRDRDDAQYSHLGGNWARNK
T1 sequence (P09693 23-182, chain 3 of 3): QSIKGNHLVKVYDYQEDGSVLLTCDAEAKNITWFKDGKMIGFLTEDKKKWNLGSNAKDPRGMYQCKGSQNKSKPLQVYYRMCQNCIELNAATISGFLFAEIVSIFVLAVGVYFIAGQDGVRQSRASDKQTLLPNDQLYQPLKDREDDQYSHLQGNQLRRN
Assay: flow cytometry, Jurkat cells, 0.32 nM antibody
Kindly provide the number alone.

HuL10H2 (Fab, V domains shown, Humanized Fab expressed in Expi293F; also called VL10 + VH2 humanized Fab) VH: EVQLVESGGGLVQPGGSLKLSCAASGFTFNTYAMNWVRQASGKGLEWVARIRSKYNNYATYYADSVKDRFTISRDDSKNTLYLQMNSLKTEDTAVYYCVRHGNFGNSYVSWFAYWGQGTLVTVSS VL: QAVVTQEPSLTTSPGGTVTLTCRSSTGAVTTSNYANWVQQKPDHLFTGLIGGTNKRAPGVPARFSGSLIGDKAALTISGAQPEDEAEYYCALWYSNLWVFGGGTKLTVL	688

// next item, MFI requested
Endpoint output: MFI of Murine anti-CD3 (antibody, V domains shown, also called murine anti-CD3 VL/VH) VH: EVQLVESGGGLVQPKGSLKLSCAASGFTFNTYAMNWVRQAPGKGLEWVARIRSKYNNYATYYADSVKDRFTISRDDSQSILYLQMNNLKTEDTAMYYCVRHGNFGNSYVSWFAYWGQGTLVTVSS VL: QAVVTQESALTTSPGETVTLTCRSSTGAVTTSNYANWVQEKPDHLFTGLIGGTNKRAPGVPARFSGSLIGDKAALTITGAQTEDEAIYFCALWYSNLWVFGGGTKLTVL . Value?
3560
